- protocolDetails: RPMI8226 myeloma cell viability, profiling panel, resazurin fluorescence, basal, 24 h, PK04 Diversity Set (AID 1180);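 also: RPMI8826 multiple myeloma cell line at 5000 cells per well; test concentration not given here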
- recordedConditions: higher = more signal
Cut-off -0.9 on z-score, inclusive. At or above means 1; below means -1.

Given CCOC(=O)C1=CCC(c2ccccc2)N(S(=O)(=O)c2ccc([N+](=O)[O-])cc2)C1 (stereo unspecified) , state whether its z-score is at least -0.9.
-1

Does z-score meet or surpass -0.9 for "C=C(CCCC)/C(=C/C[C@H](OC(C)=O)c1ccc(OCCO)cc1)c1cc(C(=O)OC)ccc1OC" ?
1

Textbook exercise: given the entry Cc1ccccc1C(O)C1C=CC2C(=O)N(c3ccccc3)C(=O)C2N1Nc1ccc([N+](=O)[O-])cc1 (stereo unspecified) , state whether its z-score is greater than or equal to -0.9.
1

hey, is z-score for this one >= -0.9? "COc1cc(CO)cc(I)c1O[C@H]1C=C(C(=O)NCCO)C[C@@H](NCC2CCCCC2)[C@@H]1O"
1

Textbook exercise: given the entry "[N-]=[N+]=NCc1ccccc1[C@H]1OC(c2ccc(OCCCO)cc2)=N[C@@]1(Cc1ccccc1)C(=O)NCCN1CCOCC1" , state whether its z-score is greater than or equal to -0.9.
1

Say whether "COC(=O)[C@@]1(Cc2ccc(OC)cc2)[C@H]2c3cc(C(=O)N4CCCC4)n(Cc4ccc(S(C)(=O)=O)cc4)c3C[C@H]2CN1C(=O)c1ccccc1" shows z-score of -0.9 or more.
1

Can "C=CCN1C(=O)[C@]2(O[C@H](CCO)[C@@H]([Si](C)(C)c3ccc(OC)cc3)[C@@H]2C)c2cc(N3C(=O)COc4ccccc43)ccc21" be said to have z-score at or above -0.9?
-1

Hi team, for CN1C(=O)C2C=CC(C(O)c3ccc(F)cc3)N(NC(=O)OC(C)(C)C)C2C1=O (stereo unspecified) , is the recorded z-score at or above -0.9?
-1

Determine whether measured z-score meets or exceeds -0.9 for "CCOC(=O)C1=C[C@@H](C(C)(C)C)N(S(=O)(=O)c2ccc(C)cc2)[C@H]1c1cccc(Cl)c1"
-1

Given the entry COc1cc(NN2C(C(O)c3cc(OC)c(OC)c(OC)c3)C=CC3C(=O)N(c4ccccc4)C(=O)C32)cc(OC)c1OC (stereo unspecified) , answer whether its z-score meets or surpasses -0.9.
-1

Does "COC(=O)[C@@]1(Cc2ccccc2)[C@H]2c3cc(C(=O)N(C)C)n(CCn4cc([N+](=O)[O-])nc4C)c3C[C@H]2CN1C(=O)c1ccccc1" have a reported z-score of at least -0.9?
1

# bool: z-score of "CCOC(=O)C[C@H]1[C@H](OC(=O)c2ccccc2-c2ccccc2)[C@@H](NC(=O)c2ccccc2)c2cc(OCCCO)ccc2N1C(=O)c1ccccc1" >= -0.9
1

Does the molecule "O=C(O)[C@H]1C[C@H]2C(=O)N[C@@H](Cc3ccccc3)C(=O)N2[C@H]1c1cccc(OCCO)c1" have recorded z-score that is -0.9 or more?
1

Reported z-score at or above -0.9? C=CC1c2cc(O)c(OC)cc2CCN1Cc1ccc([N+](=O)[O-])o1 (stereo unspecified)
1

====

- experimentalTarget: Streptavidin (Streptomyces avidinii)
- protocolDetails: streptavidin binders on small-molecule microarray, primary screen, artefact control for SMM compound annotation, biophysical, 635/667 nm fluorescence (AID 1147);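 also: signal reflects streptavidin binding to arrayed compounds as a control protein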
- recordedConditions: streptavidin binding, higher = more signal
Decision: composite z-score compared against 1; not below it gives MET, below it gives NOT MET.

Confirm if composite z-score reported for the compound "CCOC(=O)C1=C[C@@H](c2ccccc2)N(S(=O)(=O)c2ccc(C)cc2)[C@H]1c1ccccc1" is 1 or above.
MET

Is composite z-score at least 1? Consider "CCOC(=O)C1=C[C@@H](C(C)(C)C)N(S(=O)(=O)c2ccc(C)cc2)[C@H]1c1cccc(Cl)c1"
MET

// inclusive: composite z-score at least 1? input: "NCCCCCNC(=O)[C@@H]1C[C@@H]2C(=O)N3CCC[C@H]3C(=O)N2[C@@H]1c1ccc(O)cc1"
MET

Evaluate "COCCOC(=O)N1C(=O)[C@@]2(c3cc(C#CCC(C(=O)OC)C(=O)OC)ccc31)[C@H](C(=O)NC[C@H](O)c1ccccc1)[C@H]1C(=O)O[C@H](c3ccccc3)[C@H](c3ccccc3)N1[C@@H]2c1ccc(OCCO)cc1" : composite z-score at minimum 1?
NOT MET

Hello, I need to know if "O=C1N[C@@H](Cc2ccccc2)C(=O)N2[C@@H]1C[C@@H](C(=O)O)[C@H]2c1ccc(O)cc1" has measured composite z-score not below 1. Thanks!
NOT MET

For this compound, is measured composite z-score 1 or higher? CCOC(=O)C1=CCC(c2ccco2)N(S(=O)(=O)c2ccc(C)cc2)C1 (stereo not drawn)
MET

Item CCCCCN1CC=CC23O[C@@H]4C=CCOC(=O)[C@@H]4[C@H]2C(=O)N(CCO)[C@@H]3C1=O (stereo partly drawn) with composite z-score of 1 or above?
NOT MET

Evaluate "C=C(C(=O)CC[C@@H](OC(=O)c1ccccc1-c1ccccc1C(=O)O)c1ccccc1OCCO)C(C)C" : composite z-score at minimum 1?
NOT MET

Record "COc1ccc([Si](C)(C)[C@@H]2[C@@H](CCn3cc([C@H](O)c4ccccc4)nn3)O[C@]3(C(=O)N(Cc4cccc(N5C(=O)c6cccc7cccc5c67)c4)c4ccccc43)[C@H]2C)cc1" ; criterion: composite z-score no lower than 1. Met?
NOT MET

Evaluate "CCOC(=O)C=Cc1ccccc1O" : composite z-score at minimum 1?
NOT MET

Hi team, for "CC(C)CNC(=O)[C@@]1(c2ccc([N+](=O)[O-])cc2)CC(=O)N(C2CCCCC2)[C@@H]1c1ccc(CO)cc1" , is the recorded composite z-score at or above 1?
NOT MET

Determine whether measured composite z-score meets or exceeds 1 for "CC(C)C(=C=CC[C@@H](O)c1cccc(OCCO)c1)C[C@@H](O)COCc1ccccc1"
NOT MET

====

Consider the following compounds; for each one, report its z-score.
- protocolDetails: FRG1 promoter luciferase signal modulators, primary screen, FRG1 inhibition for FSHD, cell-based, C2C12 myotubes, firefly/Renilla luciferase, luminescence (AID 1084)
- recordedConditions: higher = more signal, called active from +8 up or from −8 down
Activity calls are given as the source filed them.

Note down z-score recorded for "CCCC=C(CCC)[C@@H](NS(=O)(=O)c1cccc2cccnc12)c1ccc(-c2ccccc2)cc1"
2 (inactive)

Let me know recorded z-score for "CC(C)C(=C=CC[C@@H](O)c1cccc(OCCO)c1)C[C@@H](O)COCc1ccccc1" , thanks.
-2.12 (inactive)

Please look at this compound and report its z-score: "CC(C)C[C@@H]1NC(=O)[C@H]2C[C@@H](C(=O)NCCCCCN)[C@@H](c3cccc(OCCO)c3)N2C1=O"
-0.599 (inactive)

Supply reported z-score belonging to this compound: COc1cc(NN2C(C(O)c3ccccc3)C=CC3C(=O)N(C)C(=O)C32)cc(OC)c1OC (stereo not drawn)
0.359 (inactive)

Tell me its z-score given O=C1OCCC/C=C\[C@H]2OC34C=CCN(c5ccc6ccccc6c5)C(=O)[C@H]3N(CCCO)C(=O)[C@@H]4C12 (stereo partly drawn) as the entry.
1.2 (inactive)

Determine from records and report z-score for CCCCCN1CC=CC23O[C@@H]4C=CCOC(=O)[C@@H]4[C@H]2C(=O)N(CCO)[C@@H]3C1=O (stereo partly drawn)
-0.0097 (inactive)

Report z-score, nothing else, for this compound: "Cc1ccc(N2C(=O)c3ccccc3[C@](C)(C(=O)NCc3ccccc3)[C@@H]2c2ccc(CO)cc2)nc1"
0.101 (inactive)

Return value of z-score for input "COCCCNC(=O)[C@@]1(Sc2ccc(C)cc2)CC(=O)N(Cc2ccccc2Cl)[C@@H]1c1ccc(CO)cc1I" , no commentary.
-2.5 (inactive)

====

- protocolDetails: RPMI8226 myeloma cell viability, profiling panel, resazurin fluorescence, basal, 24 h, PK04 Diversity Set (AID 1180);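 also: RPMI8826 multiple myeloma cell line at 5000 cells per well; test concentration not given here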
- recordedConditions: higher = more signal
endpoint: z-score
Give the figure by itself; no unit, no explanation.

Assign z-score to the following record: "[N-]=[N+]=Nc1ccccc1[C@@H]1OC(c2ccc(OCCCO)cc2)=N[C@]1(Cc1ccccc1)C(=O)NCc1ccccc1"
-3.62

// fetch z-score given entry "C=C(COC)/C(=C/C[C@@H](OC(=O)c1ccncc1)c1ccccc1OCCO)c1cc(C(=O)OC)ccc1OC"
-1.35

Tell me measured z-score for "[N-]=[N+]=NCc1ccccc1C[C@]1(C(=O)N2CCOCC2)COC(c2ccc(OCCCO)cc2)=N1" please.
0.698

Retrieve z-score measured for "CCOC(=O)C1=CC[C@@H](c2ccccc2)N(S(=O)(=O)c2ccc(C)cc2)[C@H]1C=Cc1ccccc1" and print it.
-1.42

Please report the measured z-score for "COc1ccc([Si](C)(C)[C@H]2[C@H](CC(=O)N3Cc4ccccc4C[C@H]3CO)O[C@@]3(C(=O)N(Cc4ccc(N5C(=O)c6cccc7cccc5c67)cc4)c4ccccc43)[C@@H]2C)cc1"
-0.737

Item "[N-]=[N+]=Nc1ccccc1C[C@]1(C(=O)O)N=C(c2ccc(OCCCO)cc2)O[C@H]1c1ccccc1" : provide z-score
-0.954

Indicate its recorded z-score; the compound in question is CC(C)[C@H]1NC(=O)[C@@]23C(=O)N[C@@H](Cc4ccccc4)C2[C@H](C)[C@@]2(C)O[C@H]2C3/C=C/C/C=C\CNC(=O)[C@H](Cc2ccccc2)NC1=O (some centres not stated)
-1.26
